assay_method_text: Intradermal (ID) MCP-1 challenge model in Cynomolgus monkey
Assay type: in vivo
test_settings: both sexes, cynomolgus monkey, plasma, 26 mg/kg once daily for 3 days; Study 1, 26 mg/kg oral once daily 3 days, 18 hours; read-out: Free plasma conc
metric_name: concentration at 18 h (nM)
One number for each entry, in nM.

Consider the compound shown here: CC(=O)N[C@@H]1C[C@H](N(C)C(C)C)CC[C@@H]1N1CC[C@H](Nc2ncnc3ccc(C(F)(F)F)cc23)C1=O What is its recorded concentration at 18 h? 238

----------
assay_method_text: Intradermal (ID) MCP-1 challenge model in Cynomolgus monkey
Format: in vivo
test_settings: both sexes, cynomolgus monkey, plasma; Study 2 (naive monkeys), 30 mg/kg oral once daily 3 days; read-out: Free plasma conc
Method: Intradermal injection of MCP-1 results in the infiltration of mononuclear cells to the injection site. […] Immediately after dosing on Day 3, all animals received at least 2 intradermal injections of 10 μg (50 μL/injection ) of human MCP-1 (R & D Systems) and at least 2 intradermal injections of its DPBS control (50 μl/injection) at separate sites on the dorsal thorax. […] Biopsies were processed for semi-quantitative histological evaluation. […]
metric_name: concentration at 18 h (nM)
One number for each entry, in nM.

Consider the compound shown here: CC(=O)N[C@@H]1C[C@H](N(C)C(C)C)CC[C@@H]1N1CC[C@H](Nc2ncnc3ccc(C(F)(F)F)cc23)C1=O [Example 1] What is its recorded concentration at 18 h? 83

----------
assay_method_text: Intradermal (ID) MCP-1 challenge model in Cynomolgus monkey
Type: in vivo
test_settings: both sexes, cynomolgus monkey, plasma; Study 2 (naive monkeys), 10 mg/kg oral once daily 3 days; read-out: Free plasma conc
metric_name: concentration at 18 h (nM)
Give bare numbers, in nM.

Consider the molecule shown here: CC(=O)N[C@@H]1C[C@H](N(C)C(C)C)CC[C@@H]1N1CC[C@H](Nc2ncnc3ccc(C(F)(F)F)cc23)C1=O What is its recorded concentration at 18 h? 34

----------
assay_method_text: Single-dose pharmacokinetics in monkeys
test_settings: male, Cynomolgus, cynomolgus monkey, in vivo, po, 1.3 mg/kg
metric_name: bioavailability (%)
Give bare numbers, in %.

Consider the molecule shown here: CC(=O)N[C@@H]1C[C@H](N(C)C(C)C)CC[C@@H]1N1CC[C@H](Nc2ncnc3ccc(C(F)(F)F)cc23)C1=O What is its recorded bioavailability? 47

----------
experimental_system: hERG (Homo sapiens)
assay_method_text: hERG flux (Tl+ flux, FLIPR) in HEK293 cells
pIC50: −log10 of the molar value.
metric_name: pIC50

Consider the molecule shown here: CC(=O)N[C@@H]1C[C@H](N(C)C(C)C)CC[C@@H]1N1CC[C@H](Nc2ncnc3ccc(C(F)(F)F)cc23)C1=O What is its recorded pIC50? < 4.10

----------
experimental_system: human cardiac sodium channel SCN5A (Homo sapiens, UniProt Q14524)
Sequence (Q14524 whole entry): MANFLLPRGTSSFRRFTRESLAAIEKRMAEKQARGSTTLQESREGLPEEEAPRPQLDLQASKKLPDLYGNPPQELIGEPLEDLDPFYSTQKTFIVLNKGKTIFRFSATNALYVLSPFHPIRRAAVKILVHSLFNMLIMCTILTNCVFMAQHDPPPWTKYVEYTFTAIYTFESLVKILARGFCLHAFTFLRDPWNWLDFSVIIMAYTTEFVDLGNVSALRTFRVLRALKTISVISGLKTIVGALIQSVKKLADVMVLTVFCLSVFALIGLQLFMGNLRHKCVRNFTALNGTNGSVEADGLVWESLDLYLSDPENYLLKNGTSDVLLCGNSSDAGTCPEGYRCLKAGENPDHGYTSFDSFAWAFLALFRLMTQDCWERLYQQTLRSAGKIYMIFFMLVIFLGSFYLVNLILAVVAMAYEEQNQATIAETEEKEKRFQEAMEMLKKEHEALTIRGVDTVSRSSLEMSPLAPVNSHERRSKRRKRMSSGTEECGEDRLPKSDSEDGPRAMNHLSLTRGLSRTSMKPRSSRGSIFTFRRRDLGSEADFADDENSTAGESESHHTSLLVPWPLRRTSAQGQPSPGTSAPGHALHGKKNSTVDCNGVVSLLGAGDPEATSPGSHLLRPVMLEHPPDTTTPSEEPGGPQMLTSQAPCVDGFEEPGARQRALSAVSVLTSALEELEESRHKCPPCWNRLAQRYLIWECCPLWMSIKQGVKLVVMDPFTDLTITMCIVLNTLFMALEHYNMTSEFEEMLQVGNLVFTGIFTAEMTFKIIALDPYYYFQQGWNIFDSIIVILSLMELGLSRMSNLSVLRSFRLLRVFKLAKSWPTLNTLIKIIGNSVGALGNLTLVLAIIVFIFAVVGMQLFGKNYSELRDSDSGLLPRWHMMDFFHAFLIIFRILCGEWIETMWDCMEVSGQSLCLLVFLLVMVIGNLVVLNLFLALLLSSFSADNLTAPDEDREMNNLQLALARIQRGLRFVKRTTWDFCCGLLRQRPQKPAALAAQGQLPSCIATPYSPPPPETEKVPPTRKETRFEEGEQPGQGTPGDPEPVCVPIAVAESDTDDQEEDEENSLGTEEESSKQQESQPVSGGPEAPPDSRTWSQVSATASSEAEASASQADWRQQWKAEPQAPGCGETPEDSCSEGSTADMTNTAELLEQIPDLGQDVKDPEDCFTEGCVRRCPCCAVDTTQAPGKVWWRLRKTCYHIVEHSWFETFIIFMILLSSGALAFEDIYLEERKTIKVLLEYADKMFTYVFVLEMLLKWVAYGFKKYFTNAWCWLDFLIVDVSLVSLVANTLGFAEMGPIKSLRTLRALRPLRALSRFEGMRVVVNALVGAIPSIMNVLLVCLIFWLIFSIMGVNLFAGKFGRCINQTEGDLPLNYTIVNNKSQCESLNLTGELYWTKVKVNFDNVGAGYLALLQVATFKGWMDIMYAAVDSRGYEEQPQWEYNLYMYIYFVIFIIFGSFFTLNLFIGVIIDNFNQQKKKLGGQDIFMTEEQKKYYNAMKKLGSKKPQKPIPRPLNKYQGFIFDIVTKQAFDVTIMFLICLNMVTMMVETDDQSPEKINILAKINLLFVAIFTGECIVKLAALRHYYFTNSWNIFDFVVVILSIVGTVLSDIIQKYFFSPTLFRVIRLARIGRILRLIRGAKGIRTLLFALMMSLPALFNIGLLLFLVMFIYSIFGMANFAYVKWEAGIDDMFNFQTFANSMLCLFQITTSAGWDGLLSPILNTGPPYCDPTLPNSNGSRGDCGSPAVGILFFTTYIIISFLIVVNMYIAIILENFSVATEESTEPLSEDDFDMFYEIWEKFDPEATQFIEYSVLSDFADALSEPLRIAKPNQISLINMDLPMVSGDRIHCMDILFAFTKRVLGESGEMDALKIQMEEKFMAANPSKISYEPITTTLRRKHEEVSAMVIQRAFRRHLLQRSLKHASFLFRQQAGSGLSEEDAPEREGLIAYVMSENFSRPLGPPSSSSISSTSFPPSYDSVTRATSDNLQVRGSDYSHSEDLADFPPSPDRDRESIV
assay_method_text: Sodium channel patch clamp, HEK-293 cells
Format: cell-based
test_settings: HEK-293 cells expressing human cardiac sodium channel SCN5A, 10,000 nM, read-out: Na+ channel patch clamp (% Inhib.)
metric_name: inhibition at 10000 nM
Quick note: unit goes after the number.

# returns recorded inhibition at 10000 nM (system: human cardiac sodium channel SCN5A (Homo sapiens, UniProt Q14524)) for CC(=O)N[C@@H]1C[C@H](N(C)C(C)C)CC[C@@H]1N1CC[C@H](Nc2ncnc3ccc(C(F)(F)F)cc23)C1=O [Example 1] 17%

----------
experimental_system: hERG (Homo sapiens, UniProt Q12809)
Sequence (Q12809 whole entry): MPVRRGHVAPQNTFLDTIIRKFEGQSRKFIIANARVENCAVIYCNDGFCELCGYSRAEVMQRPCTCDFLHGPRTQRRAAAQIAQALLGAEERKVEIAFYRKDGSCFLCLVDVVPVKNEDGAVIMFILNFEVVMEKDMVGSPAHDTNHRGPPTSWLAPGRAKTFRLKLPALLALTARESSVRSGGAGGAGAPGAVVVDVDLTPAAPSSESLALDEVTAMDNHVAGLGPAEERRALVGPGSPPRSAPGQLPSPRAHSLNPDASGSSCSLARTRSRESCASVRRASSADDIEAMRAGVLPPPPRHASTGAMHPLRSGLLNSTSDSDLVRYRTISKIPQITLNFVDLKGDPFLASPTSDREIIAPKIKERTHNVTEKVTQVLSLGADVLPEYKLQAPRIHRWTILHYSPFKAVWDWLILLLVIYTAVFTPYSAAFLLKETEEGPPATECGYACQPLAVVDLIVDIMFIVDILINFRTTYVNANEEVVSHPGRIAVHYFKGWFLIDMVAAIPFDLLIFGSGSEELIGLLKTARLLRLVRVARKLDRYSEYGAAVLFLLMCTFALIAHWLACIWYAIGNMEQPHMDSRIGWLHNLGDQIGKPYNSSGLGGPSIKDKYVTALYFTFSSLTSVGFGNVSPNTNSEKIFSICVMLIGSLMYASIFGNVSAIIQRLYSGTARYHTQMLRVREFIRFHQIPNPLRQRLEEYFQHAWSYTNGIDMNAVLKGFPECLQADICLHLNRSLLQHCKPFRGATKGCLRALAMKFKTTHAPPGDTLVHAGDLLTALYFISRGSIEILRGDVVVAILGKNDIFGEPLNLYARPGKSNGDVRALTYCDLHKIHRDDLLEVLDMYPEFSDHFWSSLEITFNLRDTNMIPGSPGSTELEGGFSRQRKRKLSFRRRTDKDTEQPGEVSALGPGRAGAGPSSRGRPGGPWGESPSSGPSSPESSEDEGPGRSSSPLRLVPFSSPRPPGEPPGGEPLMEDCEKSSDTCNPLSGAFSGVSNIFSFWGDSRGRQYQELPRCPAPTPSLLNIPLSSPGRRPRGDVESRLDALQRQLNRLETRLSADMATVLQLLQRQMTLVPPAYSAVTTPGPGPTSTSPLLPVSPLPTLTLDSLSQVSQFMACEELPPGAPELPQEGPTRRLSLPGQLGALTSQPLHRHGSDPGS
assay_method_text: hERG patch clamp, HEK-293 cells
test_settings: pH 7.4
metric_name: inhibition at 30000 nM (%)
Numbers only, in %.

Consider the compound shown here: CC(=O)N[C@@H]1C[C@H](N(C)C(C)C)CC[C@@H]1N1CC[C@H](Nc2ncnc3ccc(C(F)(F)F)cc23)C1=O What is its recorded inhibition at 30000 nM? 61

----------
Tested on: monkey PBMC's
assay_method_text: In vitro chemotaxis assay with monkey PBMC's
Format: cell-based, Cynomolgus monkey
test_settings: Primates, highly variable
Text: The first employs monkey PBMC's while the second uses L1.2 cells stably transfected with Cyno CCR2.
metric_name: IC50 (nM)
Answers are plain numbers, in nM.

Consider the molecule shown here: CC(=O)N[C@@H]1C[C@H](N(C)C(C)C)CC[C@@H]1N1CC[C@H](Nc2ncnc3ccc(C(F)(F)F)cc23)C1=O What is its recorded IC50? 5.5

----------
experimental_system: Cyno CCR2 (Macaca fascicularis)
Sequence (Z9BGH1DMK8 1-374): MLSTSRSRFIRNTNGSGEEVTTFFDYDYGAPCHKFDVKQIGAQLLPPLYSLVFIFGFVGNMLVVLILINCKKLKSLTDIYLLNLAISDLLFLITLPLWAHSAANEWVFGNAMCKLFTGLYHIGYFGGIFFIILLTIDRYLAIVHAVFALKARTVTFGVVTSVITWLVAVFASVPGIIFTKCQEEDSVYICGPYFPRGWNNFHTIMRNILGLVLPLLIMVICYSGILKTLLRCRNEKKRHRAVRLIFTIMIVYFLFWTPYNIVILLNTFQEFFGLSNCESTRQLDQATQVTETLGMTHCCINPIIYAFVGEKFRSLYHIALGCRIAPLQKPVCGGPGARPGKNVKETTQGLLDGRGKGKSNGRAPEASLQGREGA
assay_method_text: In vitro chemotaxis assay with L1.2 cells stably transfected with Cyno CCR2
metric_name: pIC50
Give bare numbers, as −log10 of the molar value.

Consider the compound shown here: CC(=O)N[C@@H]1C[C@H](N(C)C(C)C)CC[C@@H]1N1CC[C@H](Nc2ncnc3ccc(C(F)(F)F)cc23)C1=O What is its recorded pIC50? 7.94

----------
assay_method_text: Single-dose pharmacokinetics in monkeys
test_settings: male, Cynomolgus, cynomolgus monkey, plasma, po, 1.3 mg/kg
metric_name: AUC (µM·h)
Numbers only, in µM·h.

Consider the molecule shown here: CC(=O)N[C@@H]1C[C@H](N(C)C(C)C)CC[C@@H]1N1CC[C@H](Nc2ncnc3ccc(C(F)(F)F)cc23)C1=O What is its recorded AUC? 0.836

----------
assay_method_text: Intradermal (ID) MCP-1 challenge model in Cynomolgus monkey
Type: in vivo
test_settings: both sexes, cynomolgus monkey, plasma, 13 mg/kg once daily for 3 days; Study 1, 13 mg/kg oral once daily 3 days, 18 hours; read-out: Free plasma conc
metric_name: concentration at 18 h (nM)
Numbers only, in nM.

Consider the compound shown here: CC(=O)N[C@@H]1C[C@H](N(C)C(C)C)CC[C@@H]1N1CC[C@H](Nc2ncnc3ccc(C(F)(F)F)cc23)C1=O [Example 1] What is its recorded concentration at 18 h? 101

----------
assay_method_text: Intradermal (ID) MCP-1 challenge model in Cynomolgus monkey
Format: in vivo
test_settings: both sexes, cynomolgus monkey, plasma, 6.5 mg/kg once daily for 3 days; Study 1, 6.5 mg/kg oral once daily 3 days, 18 hours; read-out: Free plasma conc
metric_name: concentration at 18 h (nM)
Give bare numbers, in nM.

Consider the molecule shown here: CC(=O)N[C@@H]1C[C@H](N(C)C(C)C)CC[C@@H]1N1CC[C@H](Nc2ncnc3ccc(C(F)(F)F)cc23)C1=O What is its recorded concentration at 18 h? 53

----------
assay_method_text: Single-dose pharmacokinetics in rats
test_settings: male, Sprague-Dawley, rat, plasma, po, 10 mg/kg
metric_name: AUC
Quick note: unit goes after the number.

Consider the compound shown here: CC(=O)N[C@@H]1C[C@H](N(C)C(C)C)CC[C@@H]1N1CC[C@H](Nc2ncnc3ccc(C(F)(F)F)cc23)C1=O What is its recorded AUC? 3.79 µM·h

----------
experimental_system: UniProt Q14524
assay_method_text: Sodium channel patch clamp, HEK-293 cells
Assay type: cell-based
test_settings: HEK-293 cells expressing human cardiac sodium channel SCN5A, 30,000 nM, read-out: Na+ channel patch clamp (% Inhib.)
Experimental: The compound was tested at a protein-free aqueous buffer. For determining steady state inhibition, sodium currents were elicited every 5 seconds using the following voltage protocol: cells were held at a potential of −90 mV and stepped to −20 mV for 60 ms. Effects were calculated by measuring inhibition of peak current during the test pulse to −20 mV. Rate-dependence of inhibition was assessed by stimulation at frequencies of 1 Hz and 4 Hz.
metric_name: inhibition at 30000 nM (%)
Answers are plain numbers, in %.

# returns recorded inhibition at 30000 nM (system: UniProt Q14524) for CC(=O)N[C@@H]1C[C@H](N(C)C(C)C)CC[C@@H]1N1CC[C@H](Nc2ncnc3ccc(C(F)(F)F)cc23)C1=O [Example 1] 19
